These entries and their values trace back to the supplement of paper PMC5998384.

Tested on: HeLa Kyoto;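 further: HeLa Kyoto cells arrested at G1/S by double thymidine block, proteins quantified by TMT10plex mass spectrometry in mild NP-40 versus SDS extracts, three biological replicates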
assay_overview: solubility in G1/S (NP-40 vs SDS abundance) (log2 ratio); higher = more soluble
measurement_parameters: cell cycle stage: G1/S
recorded_endpoint: solubility in G1/S (log2)
Reply with the value as a number alone.

Name the reported solubility in G1/S (log2) value associated with the sequence MAGTALKRLMAEYKQLTLNPPEGIVAGPMNEENFFEWEALIMGPEDTCFEFGVFPAILSFPLDYPLSPPKMRFTCEMFHPNIYPDGRVCISILHAPGDDPMGYESSAERWSPVQSVEKILLSVVSMLAEPNDESGANVDASKMWRDDREQFYKIAKQIVQKSLGL [UBE2G2]
0.6

Check MPGSAAKGSELSERIESFVETLKRGGGPRSSEEMARETLGLLRQIITDHRWSNAGELMELIRREGRRMTAAQPSETTVGNMVRRVLKIIREEYGRLHGRSDESDQQESLHKLLTSGGLNEDFSFHYAQLQSNIIEAINELLVELEGTMENIAAQALEHIHSNEVIMTIGFSRTVEAFLKEAARKRKFHVIVAECAPFCQGHEMAVNLSKAGIETTVMTDAAIFAVMSRVNKVIIGTKTILANGALRAVTGTHTLALAAKHHSTPLIVCAPMFKLSPQFPNEEDSFHKFVAPEEVLPFTEGDILEKVSVHCPVFDYVPPELITLFISNIGGNAPSYIYRLMSELYHPDDHVL [EIF2B2] too.
0.101

What do we get for MAAVAATAAAKGNGGGGGRAGAGDASGTRKKKGPGPLATAYLVIYNVVMTAGWLVIAVGLVRAYLAKGSYHSLYYSIEKPLKFFQTGALLEILHCAIGIVPSSVVLTSFQVMSRVFLIWAVTHSVKEVQSEDSVLLFVIAWTITEIIRYSFYTFSLLNHLPYLIKWARYTLFIVLYPMGVSGELLTIYAALPFVRQAGLYSISLPNKYNFSFDYYAFLILIMISYIPIFPQLYFHMIHQRRKILSHTEEHKKFE [HACD2] ?
-0.368
